- system: UniProtKB O00329
- Sequence (O00329 whole entry, species assumed): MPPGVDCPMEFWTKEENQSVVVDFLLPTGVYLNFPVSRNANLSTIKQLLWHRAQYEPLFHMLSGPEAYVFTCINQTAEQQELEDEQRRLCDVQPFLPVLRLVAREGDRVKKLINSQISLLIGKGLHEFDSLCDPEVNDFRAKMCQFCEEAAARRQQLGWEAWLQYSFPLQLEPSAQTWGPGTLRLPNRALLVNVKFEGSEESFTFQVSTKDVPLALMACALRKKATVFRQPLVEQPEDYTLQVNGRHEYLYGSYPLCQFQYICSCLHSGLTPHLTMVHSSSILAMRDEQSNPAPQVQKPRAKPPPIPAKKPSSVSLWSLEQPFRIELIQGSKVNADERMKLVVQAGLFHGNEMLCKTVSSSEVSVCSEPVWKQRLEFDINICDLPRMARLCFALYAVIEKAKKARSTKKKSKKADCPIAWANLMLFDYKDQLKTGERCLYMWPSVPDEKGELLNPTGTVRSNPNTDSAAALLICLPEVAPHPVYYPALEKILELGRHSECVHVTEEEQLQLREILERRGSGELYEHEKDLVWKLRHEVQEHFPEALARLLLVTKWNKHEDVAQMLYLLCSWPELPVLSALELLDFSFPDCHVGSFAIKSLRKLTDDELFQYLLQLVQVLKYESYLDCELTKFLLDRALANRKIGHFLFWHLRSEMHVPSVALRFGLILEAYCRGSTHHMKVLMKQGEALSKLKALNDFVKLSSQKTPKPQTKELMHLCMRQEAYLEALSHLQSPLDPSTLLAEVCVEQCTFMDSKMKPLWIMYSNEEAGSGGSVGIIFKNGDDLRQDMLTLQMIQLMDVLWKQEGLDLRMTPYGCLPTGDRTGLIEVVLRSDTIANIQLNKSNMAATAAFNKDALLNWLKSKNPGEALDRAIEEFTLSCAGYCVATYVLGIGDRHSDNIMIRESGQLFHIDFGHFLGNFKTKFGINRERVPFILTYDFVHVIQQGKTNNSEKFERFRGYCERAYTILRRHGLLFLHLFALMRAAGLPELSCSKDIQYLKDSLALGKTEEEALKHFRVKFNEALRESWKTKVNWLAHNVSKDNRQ
- Sequence (P27986 whole entry partner, species assumed): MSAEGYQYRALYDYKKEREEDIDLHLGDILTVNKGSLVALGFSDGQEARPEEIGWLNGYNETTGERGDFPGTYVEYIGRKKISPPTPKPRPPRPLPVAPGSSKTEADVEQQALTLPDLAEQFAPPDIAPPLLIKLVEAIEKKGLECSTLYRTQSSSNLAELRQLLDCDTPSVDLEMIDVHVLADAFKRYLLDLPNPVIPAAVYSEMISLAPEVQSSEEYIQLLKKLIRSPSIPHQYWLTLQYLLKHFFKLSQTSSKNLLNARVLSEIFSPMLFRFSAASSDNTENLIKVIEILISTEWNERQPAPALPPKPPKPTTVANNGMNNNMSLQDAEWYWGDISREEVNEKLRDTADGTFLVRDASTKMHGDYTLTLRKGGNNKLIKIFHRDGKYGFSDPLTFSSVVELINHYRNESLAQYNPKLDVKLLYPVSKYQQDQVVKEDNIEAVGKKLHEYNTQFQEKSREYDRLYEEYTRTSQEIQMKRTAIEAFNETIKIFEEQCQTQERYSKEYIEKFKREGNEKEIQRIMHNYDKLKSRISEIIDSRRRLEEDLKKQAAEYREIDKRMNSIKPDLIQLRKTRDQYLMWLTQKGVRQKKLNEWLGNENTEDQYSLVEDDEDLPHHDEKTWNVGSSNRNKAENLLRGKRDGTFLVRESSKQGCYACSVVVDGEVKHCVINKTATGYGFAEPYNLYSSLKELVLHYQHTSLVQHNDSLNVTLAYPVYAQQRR
- run.description: In vitro inhibition of PI3Kδ
- Type: biochemical
- condition.summary: Table 14; read-out: IC50 (nM) PI3Kδ
measured.attribute: IC50 (nM)

INSERT INTO assay_data (smi, value_observed) VALUES
  ('O=C(NOCCOCCOCCOCCNc1nc(N2CCOCC2)nc(-n2c(C(F)F)nc3ccccc32)n1)c1ccc(F)c(F)c1Nc1ccc(F)cc1F', 236),
  ('CC(=O)N(C)CCNc1nc(N2CCOCC2)nc(-n2c(C(F)F)nc3ccccc32)n1', 11.7),
  ('O=C(NOCCOCCOCCOCCN(CCO)c1nc(N2CCOCC2)nc(-n2c(C(F)F)nc3ccccc32)n1)c1ccc(F)c(F)c1Nc1ccc(I)cc1F', 137),
  ('NOCCOCCOCCOCCNc1nc(N2CCOCC2)nc(-n2c(C(F)F)nc3ccccc32)n1', 12.6),
  ('COCCN(CCO)c1nc(N2CCOCC2)nc(-n2c(C(F)F)nc3ccccc32)n1', 8.9);

(I) CN(C)CCN(CCO)c1nc(N2CCOCC2)nc(-n2c(C(F)F)nc3ccccc32)n1
(II) OCCN(CCO)c1nc(N2CCOCC2)nc(-n2c(C(F)F)nc3ccccc32)n1
Query :: Field: entry with larger IC50 (options I / II ). Refer to your chosen item by its label in the answer.
Result :: I
